FYI, the data here is from patent US12325677B2.

# EXPERIMENT SUMMARY: Thickness of lipid membrane from SEM observation image
# Assay type: physicochemical
# CONDITION SUMMARY: lipid supported on fiber sheet base (hemostatic materials E1 to E4), SEM ×5,000
// Thickness of the lipid membrane lookup, one value per entry
# output: bare number, implied unit nm

| MOLECULE | UNIT | MEASURED VALUE |
| --- | --- | --- |
| CCCCCCCCCCCCCCCCOC(=O)CCC(NC(=O)CCC(=O)O)C(=O)OCCCCCCCCCCCCCCCC [DHSG, 1,5-Dihexadecyl-N-Succinyl-L-Glutamate, reference compound] | nm | 131 |
| CCCCCCCCCCCCCCCCOC(=O)CCC(NC(=O)CCC(=O)NC(CCC(=O)O)C(=O)O)C(=O)OCCCCCCCCCCCCCCCC (stereo not shown) [Glu-DHSG] | nm | 187 |
| CCCCCCCCCCCCCCCCOC(=O)CCC(NC(=O)CCC(=O)NC(CC(=O)O)C(=O)O)C(=O)OCCCCCCCCCCCCCCCC (stereo not shown) [Asp-DHSG] | nm | 153 |

Would you kindly look at the next entry?
Qu. Param item = CCCCCCCCCCCCCCCCOC(=O)CCC(NC(=O)CCC(=O)NC(CCC(=O)NC(CC(=O)O)C(=O)O)C(=O)NC(CC(=O)O)C(=O)O)C(=O)OCCCCCCCCCCCCCCCC (stereo not shown) [AG-DHSG] ; retrieve measured Thickness of the lipid membrane.
Ans. 124
